# log10 TGI per record follows
# Tested on: T-47D breast
# Experiment description: NCI tumour cell line growth inhibition, 48 h
The figures below represent log10 of TGI, where TGI is stated in µM.

Compound	Endpoint	Quantitative readout
COc1cc(/C=C/C(=O)N2CCN(C(=O)c3cc(OC)c(OC)c(OC)c3)CC2)ccc1OCCCOc1cc2c(cc1OC)C(=O)N1CCC[C@H]1C=N2	log10 TGI	-0.31
O=C1C=CC(=O)c2c1ccc1c3ccccc3n(Cc3cccc([N+](=O)[O-])c3)c21	log10 TGI	1.83

Fill: log10 TGI (T-47D breast) for this compound Oc1cc2ccccc2c(-c2c(O)c(O)cc3ccccc23)c1O
1.16

Fill: log10 TGI (T-47D breast) for this compound O=C1c2cccc(NCCN=Cc3ccccc3O)c2C(=O)c2c(NCCN=Cc3ccccc3O)cccc21
0.65

Fill: log10 TGI (T-47D breast) for this compound C=CCOC(=O)C1=C(CCC[C@@H](C)O[Si](C)(C)C(C)(C)C)N=C(N)N2[C@H](CCO)CC[C@@H]12
1.46

Fill: log10 TGI (T-47D breast) for this compound Clc1ccc(-c2cc(-c3ccccc3)nc(NCCNc3ccnc4cc(Cl)ccc34)n2)cc1
0.54

Fill: log10 TGI (T-47D breast) for this compound COc1ccc(Nc2cc(C)nc(NCCCNc3ccnc4cc(Cl)ccc34)n2)cc1
0.57

Fill: log10 TGI (T-47D breast) for this compound O=C1c2ccccc2-c2c1c1ccccc1c(=O)n2CCCNCCCCNCCCN1C(=O)c2ccccc2C2C(=O)c3ccccc3C21 (stereo unspecified)
0.25

Ref: PubChem BioAssay (NCI)
